experiment_description: soluble on expression in E. coli; label from the status in PepcDB or PDB records

seq	soluble on expression in E. coli
MSSGKRRNPLGLSLPPTVNEQSESGEATAEEATATVPLEEQLKKLGLTEPQTQRLSEFLQVKEGIKELSEDMLQTEGELGHGNGGVVNKCVHRKTGVIMARKLVHLEIKPSVRQQIVKELAVLHKCNSPFIVGFYGAFVDNNDISICMEYMDGLSLDIVLKKVGRLPEKFVGRISVAVVRGLTYLKDEIKILHRDVKPSNMLVNSNGEIKLCDFGVSGMLIDSMANSFVGTRSYMAPERLTGSHYTISSDIWSFGLSLVELLIGRYPVPAPSQAEYATMFNVAENEIELADSLEEPNYHPPSNPASMAIFEMLDYIVNGPPPTLPKRFFTDEVIGFVSKCLRKLPSERATLKSLTADVFFTQYADHDDQGEFAVFVKGTINLPKLNP	not soluble
GPGSMLTRSLVCRASLQSRRRWEQRIVSVLSENKEEGVDAVAKRFQRVYKERRYTPVEEAFPPLAAAAAAPGLRSSAAKESVESVQQPANPLVLRVAFLGPQNAGKTSLVNSMALSNVGAVSNRYGSTKDWTKAVATVHETQLLLLDTPGIVPRDTQRVRRKFASGTAKAYDALFVSDLVVLALPVGVGFVEKEHKVVATEVVRRAAGRELPVVIAMTMMDKVQTPWHRELYFAMRTDLESLGLPTAATHEVSVKGGSGLVELKDCLCQYAKPGAWEHYRREATDLNPPQRVAELLRQTFMELLPHEIPHCMRHRVLGWTRKESGTTEVVVEAFFDRPAYMFTFYGKLEAICLRAQQVTERELAPQRFRFVFQAFIAPGGLSNS	not soluble
